These measurements were taken from PubChem BioAssay (NCI).

Tested on: OVCAR-8 ovarian
Assay: NCI tumour cell line growth inhibition, 48 h; in the data active means GI50 below about 0.43 µM; inactive means the rest
Outcomes: active, inactive

compound: CCOC(=O)c1c(C)[nH]c(/C=C2\N=C(c3ccc[nH]3)C=C2OC)c1C
targetOrTestSystem: OVCAR-8 ovarian
labelValue: active
--
compound: CN(C)Cc1cccc(CN(C)C)[c]1[Sn]([Br])([c]1ccccc1)[c]1ccccc1
targetOrTestSystem: OVCAR-8 ovarian
labelValue: inactive
--
compound: O=c1ccccc(-c2ccc(-c3ccco3)cc2)c1O
targetOrTestSystem: OVCAR-8 ovarian
labelValue: inactive
--
compound: N#C/C(=C/C=C/c1ccccc1)S(=O)c1ccccc1 (centres undefined)
targetOrTestSystem: OVCAR-8 ovarian
labelValue: active
--
compound: COc1ccccc1N1CCN(C(=O)c2ccc(NS(=O)(=O)c3cccc4cccnc34)cc2)CC1
targetOrTestSystem: OVCAR-8 ovarian
labelValue: inactive
--
compound: COc1cc2c(=O)n(CCCn3ccnc3)c3c4cc5c(cc4ccc3c2cc1OC)OCO5
targetOrTestSystem: OVCAR-8 ovarian
labelValue: inactive
--
compound: Oc1cccc(Cn2c(-c3cccc(O)c3O)nc3ccccc32)c1O
targetOrTestSystem: OVCAR-8 ovarian
labelValue: inactive
--
compound: O=C(NC1CCN(Cc2ccccc2)CC1)c1cc(C(=O)NC2CCN(Cc3ccccc3)CC2)cc(C(=O)NC2CCN(Cc3ccccc3)CC2)c1
targetOrTestSystem: OVCAR-8 ovarian
labelValue: inactive
--
compound: C[C@@H](Oc1cc(NS(=O)(=O)N2CCC2)nc(SCc2cccc(F)c2F)n1)[C@@H](O)CO
targetOrTestSystem: OVCAR-8 ovarian
labelValue: inactive

----------
Tested on: MDA-MB-435
Test: NCI tumour cell line growth inhibition, 48 h
Where a SMILES comes first, the peptide text is derived from it. [ ]: non-standard residue; d: D form. The star is where a group is joined. ξ: configuration not given here. Propanoyl(3-(4-MeO-Ph)) = COc1ccc(CCC(=O)*)cc1; Thr(3ξ) = CC(O)[C@H](N)C(=O)O; dNMeL = CN[C@H](CC(C)C)C(=O)O; OBn = c1ccc(CO*)cc1; ξLac = CC(O)C(=O)O
Each entry below carries its recorded TGI.
measuredMetric: TGI (µM)

molecule: Nc1nc(N)c2nnn(C[C@H]3CC[C@@H](CO)C3)c2n1
targetOrTestSystem: MDA-MB-435
unitsOfMeasure: µM
valuePrefix: >
valueReported: 100

molecule: CCCC#CC(O)(C(=O)OC1CCN(C)CC1)C1CCCCC1 (stereo not drawn)
targetOrTestSystem: MDA-MB-435
unitsOfMeasure: µM
valuePrefix: >
valueReported: 100

molecule: CN(C)CCCN=c1cc2c(=O)n(CCCN(C)C)c(=O)c3c(NCCCN(C)C)cc4c(O)n(CCCN(C)C)c(=O)c1c4c3-2
targetOrTestSystem: MDA-MB-435
unitsOfMeasure: µM
valuePrefix: =
valueReported: 14.9

molecule: O=S(=O)(NCCCNc1cc(-c2cn(-c3ccccc3)nc2-c2cccc(O)c2)ccn1)c1cccc2ccccc12
targetOrTestSystem: MDA-MB-435
unitsOfMeasure: µM
valuePrefix: =
valueReported: 37.4

molecule: CCOC(=O)COc1c(OC)cc(C2C3=C(COC3=O)Oc3cc4c(cc32)OCO4)cc1OC (stereo not drawn)
targetOrTestSystem: MDA-MB-435
unitsOfMeasure: µM
valuePrefix: =
valueReported: 0.89

molecule: NC12CC3CC4C1CC1CC2C(C3)C4(N)C1
targetOrTestSystem: MDA-MB-435
unitsOfMeasure: µM
valuePrefix: >
valueReported: 100

molecule: COc1ccc(-n2c3c(c4c(CN(C)C)c(O)ccc42)C(=O)c2ccccc2C3=O)cc1
targetOrTestSystem: MDA-MB-435
unitsOfMeasure: µM
valuePrefix: =
valueReported: 30.9

molecule: O=C(CN1CCOCC1)CC(O)(C(F)(F)F)C(F)(F)F
targetOrTestSystem: MDA-MB-435
unitsOfMeasure: µM
valuePrefix: >
valueReported: 100

molecule: COc1ccc(C(=O)C(Br)C(Br)C(=O)O)cc1 (stereo not drawn)
targetOrTestSystem: MDA-MB-435
unitsOfMeasure: µM
valuePrefix: >
valueReported: 100

molecule: CC(=N/NC(=S)N1CCCCC1)/C(C)=N\NC(=S)N1CCCCC1
targetOrTestSystem: MDA-MB-435
unitsOfMeasure: µM
valuePrefix: =
valueReported: 3.79

molecule: O=C1OC(C2OC(=O)c3cc(O)c(O)c(O)c3-c3c(O)c(O)c4oc(=O)c5c(c(O)c(O)c6oc(=O)c3c4c65)-c3c(cc(O)c(O)c3O)C(=O)OCC2O)C2OC(=O)c3c(c(O)c(O)c(O)c3[C@H]2O)-c2c1cc(O)c(O)c2O (stereo partly drawn)
targetOrTestSystem: MDA-MB-435
unitsOfMeasure: µM
valuePrefix: =
valueReported: 42.3

molecule: CC1C(c2ccc3c(c2)OCO3)c2cc3c(cc2OC1N1CCCCC1)OCO3 (stereo not drawn)
targetOrTestSystem: MDA-MB-435
unitsOfMeasure: µM
valuePrefix: =
valueReported: 62.8

molecule: CSc1nc(O)c(/C=C2\C=Nc3ccccc32)[nH]1
targetOrTestSystem: MDA-MB-435
unitsOfMeasure: µM
valuePrefix: >
valueReported: 100

molecule: CCOC(=O)C1(C(=O)OCC)CC(=O)[C@@]2(C1)OCC[C@H]1OC(=O)C[C@H]12
targetOrTestSystem: MDA-MB-435
unitsOfMeasure: µM
valuePrefix: >
valueReported: 100

molecule: COc1ccc2c(c1)CCCN1CCc3cc(OC)c(OC)cc3C21 (stereo not drawn)
targetOrTestSystem: MDA-MB-435
unitsOfMeasure: µM
valuePrefix: >
valueReported: 100

molecule: CC(=O)c1c(-c2ccccc2)c(-c2ccc(OCCN(C)C)cc2)n2ccccc12
targetOrTestSystem: MDA-MB-435
unitsOfMeasure: µM
valuePrefix: =
valueReported: 35.3

molecule: O=C(O[C@H]1CN[C@H](C#Cc2cc3ncnc(Nc4ccc(OCc5cccc(F)c5)c(Cl)c4)c3s2)C1)N1CCOCC1
targetOrTestSystem: MDA-MB-435
unitsOfMeasure: µM
valuePrefix: >
valueReported: 25

molecule: COc1ccc(CCC(=O)OC(C)[C@H](NC(=O)[C@@H](CC(C)C)N(C)C(=O)[C@@H]2CCCN2C(=O)C(C)O)C(=O)OCc2ccccc2)cc1 (stereo partly drawn) (H-[ξLac]P[dNMeL][Thr(3ξ)](Propanoyl(3-(4-MeO-Ph)))-OBn)
targetOrTestSystem: MDA-MB-435
unitsOfMeasure: µM
valuePrefix: =
valueReported: 44.7

----------
Test system: U251 CNS
Assay: NCI tumour cell line growth inhibition, 48 h
Each entry below carries its recorded TGI.
measuredMetric: TGI

compound: CC1OC(O[C@H]2/C=C/C=C/C=C/C=C/C=C/C=C/C=C/[C@H](C)[C@@H](O)[C@@H](C)[C@H](C)OC(=O)C[C@H](O)C[C@H](O)CC[C@@H](O)[C@H](O)C[C@H](O)C[C@]3(O)C[C@H](O)[C@@H](C(=O)O)[C@H](C2)O3)C(O)C(N)C1O (stereo partly drawn)
valueReported: 40.6 µM

compound: O=c1[nH]c2ccc(CC(=S)N3CCN(c4ccccc4)CC3)cc2o1
valueReported: > 100 µM

compound: COc1ccc(CCc2ccc(O)c(C(=O)O)c2)cc1OC
valueReported: > 100 µM

compound: c1ccc2c(c1)nnn2CNc1ccc(N2CCOCC2)cc1
valueReported: > 100 µM

compound: CC(C)c1cccc(C(C)C)c1N=C(N)C#N
valueReported: > 93.2 µM

compound: COC(=O)[C@H](Cc1ccccc1)NP(=O)(O)OCC1OC(n2cc(C)c(=O)[nH]c2=O)CC1N=[N+]=[N-] (stereo partly drawn)
valueReported: > 100 µM

compound: COc1cc([C@@H]2c3cc4c(cc3[C@@H](NCc3ccc(C#N)cc3)C3COC(=O)[C@@H]32)OCO4)cc(OC)c1O (stereo partly drawn)
valueReported: 1.55 µM

compound: COC(OC)(c1ccccc1)C(I)I
valueReported: 33 µM

----------
Tested on: OVCAR-5 ovarian
Experiment: NCI tumour cell line growth inhibition, 48 h
Each entry below carries its recorded TGI.

compound: CCCCNC(=O)Oc1ccc2c(=O)c3sc4c(=O)c5ccccc5c(=O)c4c3c(=O)c2c1
TGI: 4.55 µM
//
compound: NC(Cc1c[nH]c2ccccc12)C(=O)O (stereo unspecified)
TGI: > 300 µM
//
compound: CC12CC3(O)OC(O1)C1(COC(=O)c4ccccc4)C3CC21OC1OC(CO)C(O)C(O)C1O (stereo unspecified)
TGI: > 100 µM
//
compound: CC1=C(/C=C/C2=CC(=C\C(=O)O)/CC(C3=C(C)CCCC3(C)C)C2)C(C)(C)CCC1 (stereo unspecified)
TGI: 29.9 µM
//
compound: COc1cc2ccnc3c2c(c1OC)CC1CC(O)C(OC)CC31 (stereo unspecified)
TGI: > 100 µM
//
compound: Nc1nc(N)c2nc(-c3ccco3)cnc2n1
TGI: > 100 µM
//
compound: CC(NC(=O)C(N)CC(=O)O)NC(=O)N1CCOCC1 (stereo unspecified)
TGI: > 100 µM
//
compound: CC(C)(C)N1CC(OC(N)=O)C1
TGI: > 100 µM
//
compound: COC(OC)(c1ccccc1)C(I)I
TGI: 33.1 µM
//
compound: O=C(O)CN(c1ccccc1)S(=O)(=O)c1ccc(Cl)cc1
TGI: > 100 µM
//
compound: C[C@@H](Oc1cc(NS(=O)(=O)N2CCC2)nc(SCc2cccc(F)c2F)n1)[C@@H](O)CO
TGI: > 100 µM
//
compound: COc1ccc(CCCC(=O)O)c(C)c1
TGI: > 100 µM
//
compound: O=S1c2ccccc2N=C(c2ccc(Cl)cc2)CC1c1cccs1 (stereo unspecified)
TGI: 61.3 µM
//
compound: CC(=O)NC1C(OCc2ccccc2)OC(COC(=O)CCCCCNc2ccc([N+](=O)[O-])c3[nH]c4ccc(O)cc4c(=O)c23)C(O)C1OC(C)C(=O)N[C@@H](C)C(=O)N[C@H](CCC(=O)OCc1ccccc1)C(N)=O (stereo partly specified)
TGI: 3.81 µM
//
compound: CCOP(=O)(OCC)/C(C#N)=C/c1cccn1N(C)C
TGI: > 100 µM
//
compound: CC(C)(C)OC(=O)NC(Cc1ccc(OCc2ccccc2)cn1)C(=O)N1CCSCC1 (stereo unspecified)
TGI: > 100 µM
//
compound: CN(C1=NS(=O)(=O)N=C(N(C)c2ccccc2)O1)c1ccccc1
TGI: 47 µM
//
compound: O=C(N/N=C\c1ccc([N+](=O)[O-])cc1)Nc1cccc2ccccc12
TGI: > 100 µM
//
compound: Cc1ccc([N+](=O)[O-])cc1S(=O)(=O)Nc1ccc(C2=NNC(c3cccs3)C2)cc1 (stereo unspecified)
TGI: > 100 µM
//
compound: CC(C)CC1[C@@H](OCc2ccccc2)COS(=O)(=O)N1Cc1ccccc1 (stereo partly specified)
TGI: > 100 µM
//
compound: COc1ccccc1N1CCN(C(=O)c2ccc(NS(=O)(=O)c3cccc4cccnc34)cc2)CC1
TGI: > 100 µM
